Tested on: III-B strain of HIV-1
test.summary: microbe, parasite or virus in culture
Type: cell-based
property.name: Selectivity CC50/EC50 × 10^3

State the recorded Selectivity CC50/EC50 × 10^3 for this entry: Cc1cn(C2C=CC(COP(=O)(NC(Cc3ccccc3)C(=O)OCc3ccccc3)Oc3ccccc3)O2)c(=O)[nH]c1=O (stereo not shown) [Compound 866]
>1.25 × 10^3

Could you do the same for COC(=O)C(Cc1ccccc1)NP(=O)(OC[C@@H]1C=C[C@H](n2cc(C)c(=O)[nH]c2=O)O1)Oc1ccccc1 (stereo partly shown) , please?
31.2 × 10^3

Could you do the same for COC(=O)C(NP(=O)(OCC1C=CC(n2cc(C)c(=O)[nH]c2=O)O1)Oc1ccccc1)C(C)C (stereo not shown) , please?
>1.25 × 10^3

Could you do the same for Cc1cn(C2C=CC(COP(=O)(NC(C)C(=O)OCc3ccccc3)Oc3ccc(Br)cc3Br)O2)c(=O)[nH]c1=O (stereo not shown) , please?
156 × 10^3

* * *

System: HIV-2
test.summary: Inhibition of HIV-2 in CEM/TK- cells
Assay type: cell-based
settings: Human immunodeficiency virus 2, CEM-TK(-), read-out: HIV2 CEM-TK-: EC50 for inhibition of HIV-2 in CEM/TK^− cells
property.name: pEC50
Keep it numeric: pEC50 is minus log10 of the concentration in mol/L.

Please state recorded pEC50 (tested on HIV-2) of COC(=O)C(C)NP(=O)(OCC1C=CC(n2cc(C)c(=O)[nH]c2=O)O1)Oc1ccccc1 (stereo not shown)
7.12

* * *

So I've got a bunch of compounds here, and I need their CC50 values.
Tested on: MT-4 cells
test.summary: Toxicity to MT-4 cells
Format: cell-based, human
settings: Table 6; mean of two or more repeat experiments; read-out: CC50 MT4: CC50 for toxicity to MT-4 cells

State the recorded CC50 for this entry: COC(=O)C(Cc1ccccc1)NP(=O)(OCC1C=CC(n2cc(C)c(=O)[nH]c2=O)O1)OCC(Cl)(Cl)Cl (stereo not drawn) [Compound 325]
> 100 µM

Could you do the same for CCCOP(=O)(N[C@@H](C)C(=O)OC)OC[C@@H]1C=C[C@H](n2cc(C)c(=O)[nH]c2=O)O1 (stereo partly drawn) [Compound 326] , please?
> 250 µM

Could you do the same for COC(=O)C(C)NP(=O)(OCC1C=CC(n2cc(C)c(=O)[nH]c2=O)O1)Oc1cccc(C(F)(F)F)c1 (stereo not drawn) [Compound 526] , please?
10 µM

Could you do the same for COC(=O)[C@H](C)NP(=O)(OC)OC[C@@H]1C=C[C@H](n2cc(C)c(=O)[nH]c2=O)O1 (stereo partly drawn) [Compound 740] , please?
> 250 µM

Could you do the same for COC(=O)C(C)NP(=O)(OC[C@@H]1C=C[C@H](n2cc(C)c(=O)[nH]c2=O)O1)Oc1c(F)c(F)c(F)c(F)c1F (stereo partly drawn) [Compound 779] , please?
82 µM

Could you do the same for Cc1cn(C2C=CC(COP(=O)(NC(Cc3ccccc3)C(=O)OCc3ccccc3)Oc3ccccc3)O2)c(=O)[nH]c1=O (stereo not drawn) [Compound 866] , please?
≥ 250 µM

* * *

Test system: C8166 cells
test.summary: Toxicity in C8166 cells (MTT-Formazen)
Type: cell-based
settings: Table 3
Consider the cut-off 200 µM. If the recorded CC50 is strictly smaller, the label is met; if not, the label is not met.

Please indicate whether the reported CC50 of CCc1ccc(OP(=O)(N[C@@H](C)C(=O)OC)OCC2C=CC(n3cc(C)c(=O)[nH]c3=O)O2)cc1 (stereo partly drawn) is strictly below 200 µM.
met

Could you do the same for COC(=O)C(CC(C)C)NP(=O)(OCC1C=CC(n2cc(C)c(=O)[nH]c2=O)O1)Oc1ccccc1 (stereo not drawn) , please?
not met

Could you do the same for COC(=O)C(CCSC)NP(=O)(OCC1C=CC(n2cc(C)c(=O)[nH]c2=O)O1)Oc1ccccc1 (stereo not drawn) , please?
not met

Could you do the same for Cc1cn(C2C=CC(COP(=O)(NC(Cc3ccccc3)C(=O)OCc3ccccc3)Oc3ccccc3)O2)c(=O)[nH]c1=O (stereo not drawn) [Compound 866] , please?
not met

Could you do the same for COC(=O)C(C)NP(=O)(OC[C@@H]1C=C[C@H](n2cc(C)c(=O)[nH]c2=O)O1)Oc1c(F)c(F)c(F)c(F)c1F (stereo partly drawn) , please?
met

Could you do the same for COC(=O)C(Cc1ccccc1)NP(=O)(OC[C@@H]1C=C[C@H](n2cc(C)c(=O)[nH]c2=O)O1)Oc1ccccc1 (stereo partly drawn) , please?
not met

Could you do the same for COC(=O)C(NP(=O)(OCC1C=CC(n2cc(C)c(=O)[nH]c2=O)O1)Oc1ccccc1)C(C)C (stereo not drawn) , please?
not met

Could you do the same for COC(=O)C(C)NP(=O)(OC[C@@H]1C=C[C@H](n2cc(C)c(=O)[nH]c2=O)O1)Oc1cc(Cl)cc(Cl)c1 (stereo partly drawn) , please?
met

Could you do the same for Cc1cn(C2C=CC(COP(=O)(NC(Cc3ccccc3)C(=O)OCc3ccccc3)Oc3ccccc3)O2)c(=O)[nH]c1=O (stereo not drawn) [Compound 877] , please?
met

Could you do the same for CCCCCCOC(=O)[C@H](C)NP(=O)(OCC1C=CC(n2cc(C)c(=O)[nH]c2=O)O1)Oc1ccccc1 (stereo partly drawn) , please?
not met

Could you do the same for Cc1cn([C@H]2C=C[C@@H](COP(=O)(NC(C)C(=O)OC(C)(C)C)Oc3ccccc3)O2)c(=O)[nH]c1=O (stereo partly drawn) , please?
not met

Could you do the same for Cc1cn([C@H]2C=C[C@@H](COP(=O)(NC(Cc3ccccc3)C(=O)OC(C)(C)C)Oc3ccccc3)O2)c(=O)[nH]c1=O (stereo partly drawn) , please?
met

Could you do the same for Cc1cn(C2C=CC(COP(=O)(NC(C)C(=O)OCc3ccccc3)Oc3ccccc3)O2)c(=O)[nH]c1=O (stereo not drawn) , please?
not met

Could you do the same for Cc1cn(C2C=CC(COP(=O)(Oc3ccc(Br)cc3Br)N(C)C(C)C(=O)O)O2)c(=O)[nH]c1=O (stereo not drawn) , please?
met

Could you do the same for Cc1cn(C2C=CC(COP(=O)(NC(C)C(=O)OCc3ccccc3)Oc3ccc(Br)cc3Br)O2)c(=O)[nH]c1=O (stereo not drawn) , please?
not met

Could you do the same for Cc1cn(C2C=CC(COP(=O)(N[C@@H](C)C(=O)OC3CCCCC3)Oc3ccccc3)O2)c(=O)[nH]c1=O (stereo partly drawn) , please?
not met

* * *

Test system: MT-4 cells
test.summary: Toxicity to MT-4 cells
Assay type: cell-based, human
settings: Table 6; mean of two or more repeat experiments; read-out: CC50 MT4: CC50 for toxicity to MT-4 cells
property.name: CC50 (µM)
Provide only the numeric value, understood in µM.

State the recorded CC50 for this entry: COC(=O)C(CC(C)C)NP(=O)(OCC1C=CC(n2cc(C)c(=O)[nH]c2=O)O1)Oc1ccccc1 (stereo not shown)
62

Could you do the same for COC(=O)C(Cc1ccccc1)NP(=O)(OC[C@@H]1C=C[C@H](n2cc(C)c(=O)[nH]c2=O)O1)Oc1ccccc1 (stereo partly shown) , please?
34

Could you do the same for COC(=O)C(C)NP(=O)(OC[C@@H]1C=C[C@H](n2cc(C)c(=O)[nH]c2=O)O1)Oc1cc(Cl)cc(Cl)c1 (stereo partly shown) , please?
10.5

Could you do the same for COC(=O)C(CCSC)NP(=O)(OCC1C=CC(n2cc(C)c(=O)[nH]c2=O)O1)Oc1ccccc1 (stereo not shown) , please?
22

* * *

System: MSV
test.summary: Inhibition of MSV (in vitro)
Type: cell-based, Moloney Sarcoma Virus
settings: Table 6
property.name: EC50 (µM)
Provide only the numeric value, understood in µM.

State the recorded EC50 for this entry: CCOC(=O)C(C)NP(=O)(OCC1C=CC(n2cc(C)c(=O)[nH]c2=O)O1)Oc1ccccc1 (stereo not drawn)
25

Could you do the same for CSCC[C@H](NP(=O)(O)OC[C@@H]1C=C[C@H](n2cc(C)c(=O)[nH]c2=O)O1)C(=O)O , please?
16.2

Could you do the same for COC(=O)C(OP(=O)(OCC1C=CC(n2cc(C)c(=O)[nH]c2=O)O1)Oc1ccccc1)c1ccccc1 (stereo not drawn) , please?
14

Could you do the same for Cc1cn(C2C=CC(COP(=O)(O)NC(CC(=O)O)C(=O)O)O2)c(=O)[nH]c1=O (stereo not drawn) , please?
9.3

Could you do the same for COC(=O)CC(NP(=O)(OCC1C=CC(n2cc(C)c(=O)[nH]c2=O)O1)Oc1ccccc1)C(=O)OC (stereo not drawn) , please?
31.4

Could you do the same for COC(=O)CCC(NP(=O)(OCC1C=CC(n2cc(C)c(=O)[nH]c2=O)O1)Oc1ccccc1)C(=O)OC (stereo not drawn) , please?
88.8

Could you do the same for Cc1cn(C2C=CC(COP(=O)(O)O)O2)c(=O)[nH]c1=O (stereo not drawn) , please?
6.7

Could you do the same for Cc1cn(C2C=CC(COP(=O)(O)N[C@H](C)C(=O)O)O2)c(=O)[nH]c1=O (stereo partly drawn) , please?
0.42

Could you do the same for COC(=O)C(C)NP(=O)(O)OCC1C=CC(n2cc(C)c(=O)[nH]c2=O)O1 (stereo not drawn) , please?
47.4

Could you do the same for Cc1cn(C2C=CC(COP(=O)(O)NC(C)C(=O)OCc3ccccc3)O2)c(=O)[nH]c1=O (stereo not drawn) , please?
15.7
